Please go through the items and note down their Internalization % TOP.
molecular target: human GLP-1R (SNAP-GLP-1R expressed in HEK293 cells) (human) (UniProt P43220); experiment: cell-based or functional assay
Sequence (P43220 24-463): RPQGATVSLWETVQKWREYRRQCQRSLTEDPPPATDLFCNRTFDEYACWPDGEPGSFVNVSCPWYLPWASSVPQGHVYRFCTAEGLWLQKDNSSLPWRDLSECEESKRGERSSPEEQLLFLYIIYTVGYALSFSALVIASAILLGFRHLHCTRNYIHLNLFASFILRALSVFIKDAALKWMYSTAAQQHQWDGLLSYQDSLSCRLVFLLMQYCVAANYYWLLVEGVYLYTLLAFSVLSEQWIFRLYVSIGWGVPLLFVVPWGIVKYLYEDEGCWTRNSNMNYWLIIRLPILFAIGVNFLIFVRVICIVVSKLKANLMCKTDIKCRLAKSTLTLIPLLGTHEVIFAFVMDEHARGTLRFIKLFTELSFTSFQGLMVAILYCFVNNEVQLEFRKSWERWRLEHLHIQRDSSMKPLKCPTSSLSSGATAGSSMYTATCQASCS
Starred links: 1 amine or outer side, 2 acyl side, 3 side chain; linkers in the order of their positions; H or OH if unused. Non-standard residues stand in square brackets, D forms with d. Groups on a side chain read outwards from the residue. No end group written: not given here. *: point of attachment. C20 diacid = O=C(O)CCCCCCCCCCCCCCCCCCC(=O)*; γGlu = O=C(O)[C@H](CCC(=O)[*:2])N[*:1]; αMeL = CC(C)C[C@](C)(N)C(=O)O; AEEA = NCCOCCOCC(=O)O; Aib = CC(C)(N)C(=O)O
Numbers only; they are read as %.

The measured Internalization % TOP associated with Y[Aib]QGTFTSDYSI[αMeL]LDKK([AEEA-γGlu-C20 diacid])AQRAFIEYLLEGGPSSGEPPPSEG-NH2 (not fully specified) [Example 289] reads 86.5

// Internalization % TOP lookup, binder = YXQGTFTSDFSXXLDKKAQXAFIEWLLEGGTSSGAPPPSGT (synthetic construct; SITE 2: note = 2-Aminoisobutyric Acid; SITE 12: note = L-ornithine; SITE 13: note = alpha-methyl-leucine; SITE 17: note = Lysine is chemically modified through conjugation of the epsilon-amino group of the Lysine side chain with (2-[2-(2-Amino-ethoxy)-ethoxy]-acetyl)-(gamma-Glu)) [Example 177] , result: 44

Just so you know, measured Internalization % TOP for YXQGTFTSDFSXXLDKKAQXAFIEYLLEXGPSSGAPPPSGE (synthetic construct; SITE 2: note = 2-Aminoisobutyric Acid; SITE 12: note = L-ornithine; SITE 13: note = alpha-methyl-leucine; SITE 17: note = Lysine is chemically modified through conjugation of the epsilon-amino group of the Lysine side chain with (2-[2-(2-Amino-ethoxy)-ethoxy]-acetyl)2-(gamma-Glu)) [Example 111] came out at 46.4
